- measurement description: solubility assessment of micronized tolcapone in buffers (HPLC assay and visual observation)
- Format: physicochemical
- study conditions: buffer, pH 2, aqueous buffer, thermodynamic from solid, pH 2.0, 1 Hour; read-out: Mean Assay (solubility by HPLC)
assay metric: solubility at 1 h (µg/mL)
Answers are plain numbers, in µg/mL.

Give its solubility at 1 h value. Item: Cc1ccc(C(=O)c2cc(O)c(O)c([N+](=O)[O-])c2)cc1 20

* * *

- measurement description: solubility assessment of micronized tolcapone in buffers (HPLC assay and visual observation)
- Type: physicochemical
- study conditions: buffer, pH 6.8, aqueous buffer, thermodynamic from solid, pH 6.8, 1 Hour, replicates N=1, N=2; read-out: Assay (solubility by HPLC)
assay metric: solubility at 1 h (µg/mL)
Answers are plain numbers, in µg/mL.

Give its solubility at 1 h value. Item: Cc1ccc(C(=O)c2cc(O)c(O)c([N+](=O)[O-])c2)cc1 920

Entry source: patent US20260124146A1
